Assay: Nrf2 qHTS screen for inhibitors; further: nearly all actives have a fitted effect of over 60% in size
Conditions: A549 ARE-Fluc reporter, luciferase luminescence, 18-24 h; series mostly up to 46 µM
In all, about 360,000 compounds went through this assay and about 7,500 (2.1%) were called active. Another 20% or so got no clear call; they are omitted. The call rests on the fitted dose curve; in most records, active means well fitted inhibition curve with a large enough effect; inconclusive means small, poorly fitted or top-dose-only effect, or effect the other way; inactive means flat fitted curve, though single readings scatter. Only a selection was taken, and actives are over-represented in it overall.
Possible outcomes: active, inactive

{"columns": ["COMPOUND", "QUALITATIVE_LABEL"],
 "data": [
  ["COc1cc2c(cc1OC)C(Cc1cc(OC)c(OC)cc1[N+](=O)[O-])=NCC2", "inactive"],
  ["CC(=O)Nc1nc2ccccc2n1Cc1ccc(C)cc1", "active"],
  ["O=C(CSc1nc2ccccc2c(=O)n1Cc1ccc(F)cc1)NCC1CCCO1 (configuration not stated)", "inactive"],
  ["O=C(CCCn1c(SCC(=O)c2ccc(F)cc2)nc2ccccc2c1=O)NCc1ccco1", "active"],
  ["CC(=O)OCC1(O)CC23CCC4c5ccoc5CCC4(C)C2CCC1C3 (configuration not stated)", "inactive"],
  ["COc1ccc(CCNC(=O)c2nnc(CS(=O)(=O)c3ccccc3)o2)cc1OC", "inactive"],
  ["COc1ccccc1CNC(=O)c1ccc(CS(=O)(=O)c2ccccc2)o1", "inactive"],
  ["CCc1ccc(Oc2coc3cc(OC(=O)c4cc5ccccc5oc4=O)ccc3c2=O)cc1", "active"],
  ["Cc1cc(C)cc(NS(=O)(=O)c2ccc(F)cc2)c1", "inactive"],
  ["O=C(CCCn1c(SCC(=O)c2ccccc2)nc2ccccc2c1=O)NCC1CCCO1 (configuration not stated)", "inactive"],
  ["Cc1cc(C)cc(OCC(=O)Nc2ccc(N3CCOCC3)cc2N2CCOCC2)c1", "inactive"],
  ["CCc1ccc(Oc2coc3cc(O)ccc3c2=O)cc1", "active"],
  ["Cn1c(=O)n(C)c2cc(S(=O)(=O)Nc3ccc(F)cc3)ccc21", "active"],
  ["Cn1c(=O)n(C)c2cc(NS(=O)(=O)c3ccc(F)cc3)ccc21", "inactive"],
  ["COCC(=O)N(C)[C@H]1C[C@H]2c3cc(Oc4ccccc4C)ccc3CCN2C(=O)[C@H]1[C@H](C)O", "inactive"],
  ["Cc1ccc(OC(=O)CSc2nnc(-c3cccs3)o2)cc1", "inactive"],
  ["COc1ccc(/C=N/NS(=O)(=O)c2ccc(NC(C)=O)cc2)cc1", "inactive"],
  ["CC(=O)c1nc2ccccc2n1Cc1ccccc1", "inactive"],
  ["CCC(=O)Nc1nc2ccccc2n1Cc1ccccc1C", "inactive"],
  ["CCOC(=O)c1cc(=O)c2ccc(OCc3ccccc3)cc2o1", "inactive"],
  ["CCN(CC)c1nc(C#N)nc(OC)n1", "inactive"],
  ["CCOc1ccccc1NC(=S)C(=C([O-])c1ccc2c(c1)OCCO2)[n+]1ccc(CC)cc1", "inactive"]
]}

---

Assay: Nrf2 qHTS screen for inhibitors; further: nearly all actives have a fitted effect of over 60% in size
Settings: A549 ARE-Fluc reporter, luciferase luminescence, 18-24 h; series mostly up to 46 µM
About 7,500 (2.1%) of roughly 360,000 compounds were called active. Inconclusive results (about 20%) are left out. Calls follow the shape of the dose curve; as a rule, active = well fitted inhibition curve with a large enough effect; inconclusive = small, poorly fitted or top-dose-only effect, or effect the other way; inactive = flat fitted curve, though single readings scatter. The sample as a whole holds a higher share of actives than the screen did.
Labels: active, inactive

{"columns": ["COMPOUND", "QUALITATIVE_LABEL"],
 "data": [
  ["COc1ccc(N(C)S(=O)(=O)c2ccc3c(c2)CC(C)N3C(=O)C2CC2)c(OC)c1 (stereo unspecified)", "inactive"],
  ["COc1ccc(-c2csc(NC(=O)c3ccc(N4C(=O)CCC4=O)cc3)n2)cc1OC", "inactive"],
  ["N#C/C(=C\\C1=C(N2CCOCC2)C(=C\\c2ccccc2)/CC1)C(=O)Nc1ccccc1F", "inactive"],
  ["COc1ccc(CCNc2nc(-c3cccc(NC(C)=O)c3)cs2)cc1OC", "inactive"],
  ["CC(=O)Nc1ccc(-c2csc(NC(=O)Nc3ccccc3)n2)cc1", "active"],
  ["Cc1ccc(NC(=O)COc2ccc(/C=N\\NC(=O)c3cccnc3)cc2)cc1C", "inactive"],
  ["Cc1ccc(NC(=O)c2ccc(Cl)nc2)cc1S(=O)(=O)N1CCOCC1", "inactive"],
  ["COc1ccc(C2=Nn3c(nnc3-c3ccccc3OC)SC2)cc1OC1CCCC1", "active"],
  ["COc1ccccc1-c1noc(CSc2nnc(-c3ccccc3)n2-c2ccc(C)c(C)c2)n1", "inactive"],
  ["COc1cc(OC)cc(-c2c(C#Cc3ccsc3)c3cc(-c4ccc(OC)cc4F)ccc3n2C)c1", "inactive"],
  ["Cc1ccc(CNC(=O)CSc2c3c(nc4cc(Cl)ccc24)CCCC3)cc1", "inactive"],
  ["NC(=O)c1sc2nc3c(c(-c4ccccc4)c2c1N)CCC3", "active"],
  ["Cc1sc2nc(CC(N)=O)[nH]c(=O)c2c1-c1ccccc1", "inactive"],
  ["Cc1ccc(OCC(=O)NCCCNC(=O)c2cccnc2)cc1C", "active"],
  ["CN(C(=O)c1cccc(NC(=O)Cc2cccc(NC(=O)C3CCCN(C(=O)C4CC4)C3)c2)c1)C1CCC1 (stereo unspecified)", "inactive"],
  ["N#Cc1ccc(OC2=NS(=O)(=O)c3ccccc32)cc1", "inactive"],
  ["O=C(O)c1ccccc1C(=O)Nc1nc(-c2ccccc2)cs1", "inactive"],
  ["CCOC(=O)c1c(-c2ccc(OC)cc2)oc2ccc(OCc3ccc(C(=O)OC)cc3)cc12", "inactive"],
  ["CCOc1ccc2[nH]c3nc(SCC(=O)NC4CCCC4)nnc3c2c1", "inactive"],
  ["Cc1ccc(S(=O)(=O)NC(=O)Nc2nc(-c3ccc(F)c(F)c3)cs2)cc1", "inactive"],
  ["Cc1ccc(OCC(=O)NCCCNC(=O)c2ccco2)cc1C", "inactive"]
]}

---

Experiment: Nrf2 qHTS screen for inhibitors; further: nearly all actives have a fitted effect of over 60% in size
Conditions: A549 ARE-Fluc reporter, luciferase luminescence, 18-24 h; series mostly up to 46 µM
Out of some 360,000 compounds screened, about 7,500 (2.1%) were called active. Inconclusive results (about 20%) are left out. Calls follow the shape of the dose curve; as a rule, active = well fitted inhibition curve with a large enough effect; inconclusive = small, poorly fitted or top-dose-only effect, or effect the other way; inactive = flat fitted curve, though single readings scatter. Shown is part of a subset that was picked to be rich in actives.
Classes used: YES = active, NO = inactive

{"columns": ["COMPOUND", "QUALITATIVE_LABEL"],
 "data": [
  ["Cc1ccc(C(=O)NNC(=O)c2ccncc2)cc1S(=O)(=O)N1CCCCC1", "NO"],
  ["Cc1ccc(NC(=O)CCCNC(=O)c2ccc(Cl)cc2)cc1S(=O)(=O)N1CCCCC1", "YES"],
  ["Cc1ccc(NC(=O)CCCNC(=O)c2ccc(Cl)cc2)cc1S(=O)(=O)N1CCOCC1", "NO"],
  ["CN1C(=O)C(CC(=O)Nc2ccccc2)S/C1=N/c1nccs1 (stereo unspecified)", "NO"],
  ["O=C(N[C@H]1C/C=C\\C(c2cccc(F)c2)N(Cc2ccccc2)C(=O)C1)OCC1c2ccccc2-c2ccccc21 (stereo partly specified)", "NO"],
  ["O=C(NNC(=O)c1ccccc1O)c1ccccc1O", "NO"],
  ["COc1ccc(-c2onc(C)c2C)cc1S(=O)(=O)NCc1cccs1", "NO"],
  ["COc1ccccc1CNC(=O)c1ccc(CS(=O)c2ccccc2Cl)o1 (stereo unspecified)", "NO"],
  ["O=C(Nc1cccc(Cl)c1)OCc1ccccn1", "NO"],
  ["COc1ccc(NC(=O)CCN2CCN(CCO)CC2)cc1", "NO"],
  ["Cc1cccc(C(=O)N2c3nc(-c4ccco4)nn3C3(CCCCC3)[C@@H]3CCCC[C@@H]32)c1", "NO"],
  ["CSCCC(NC(=O)c1ccccc1)C(=O)N1CCN(Cc2ccc(Cl)cc2)CC1 (stereo unspecified)", "NO"],
  ["COC(=O)c1ccccc1NC(=O)Cn1c(=O)cc(C)c2c(C)nn(-c3cccc(Cl)c3C)c21", "NO"],
  ["CCC1CCCCN1Cc1c(O)ccc2c(=O)c(Oc3ccccc3Cl)c(C(F)(F)F)oc12 (stereo unspecified)", "NO"],
  ["O=S1(=O)N=C(Oc2cccc(Br)c2)c2ccccc21", "NO"],
  ["CC(=O)c1ccc(NC(=O)c2nc3nc(C)cc(C(F)F)n3n2)cc1", "NO"],
  ["O=C(/C=C/c1ccccc1)N/C(=C/c1ccccc1)C(=O)Nc1ccccc1O", "NO"],
  ["O=C(NCCCN1CCOCC1)c1cn(-c2ccccc2)nc1-c1ccc(F)cc1", "NO"],
  ["Cc1ccc(NS(=O)(=O)c2cccs2)cc1S(=O)(=O)N1CCCCCC1", "YES"],
  ["O=C(CC1SC(=Nc2ccccc2)N(Cc2ccccn2)C1=O)Nc1cccc(Cl)c1 (stereo unspecified)", "YES"],
  ["O=C(C1CCN(S(=O)(=O)c2cccs2)CC1)N1CCCCCC1", "NO"]
]}

---

Experiment: Nrf2 qHTS screen for inhibitors; further: nearly all actives have a fitted effect of over 60% in size
Conditions: A549 ARE-Fluc reporter, luciferase luminescence, 18-24 h; series mostly up to 46 µM
In all, about 360,000 compounds went through this assay and about 7,500 (2.1%) were called active. About 20% were inconclusive and are not listed. Calls follow the shape of the dose curve; as a rule, active = well fitted inhibition curve with a large enough effect; inconclusive = small, poorly fitted or top-dose-only effect, or effect the other way; inactive = flat fitted curve, though single readings scatter. The sample holds actives, similar compounds and a random draw of the others, so the mix is not that of the screen.
Outcome codes: yes = active, no = inactive

{"columns": ["COMPOUND", "QUALITATIVE_LABEL"],
 "data": [
  ["COc1cc(C(=O)NNC(=O)c2ccc(S(=O)(=O)N3CCCCC3)cc2)cc(OC)c1OC", "no"],
  ["COc1ccc(Cl)cc1-n1c(C)cc(C(=O)OCC(=O)N2CC(=O)Nc3ccccc32)c1C", "yes"],
  ["C#CCOCCOCCOCCNc1nc(N2CCN(C(=O)Cn3cc(CCO)nn3)CC2)nc(N2CCN(C(=O)[C@H](CCCCN)n3cc(CCCC)nn3)CC2)n1", "no"],
  ["CNC(=O)N1c2ccccc2C=Cc2ccccc21", "no"],
  ["COc1ccc(OC)c(NC(=O)CN2CCCN(Cc3cc(C)ccc3C)S2(=O)=O)c1", "no"],
  ["Cc1ccc2nc(/C(C#N)=C/c3ccccc3F)[nH]c2c1", "no"],
  ["CCn1c(CN2CCC(C)CC2)nc2cc(NC(=O)c3ccccc3[N+](=O)[O-])ccc21", "no"],
  ["N#CN1CCC(NC(=O)c2ccc(F)cc2)CC1", "no"],
  ["O=C(NCCCc1ccccc1)c1ccc2c(c1)sc1nc(-c3ccc(F)cc3)cn12", "no"],
  ["C=CCCC(=O)N1C[C@H]2CON(C)[C@H]2C[C@H]1c1cccc(Nc2ccccc2)c1", "no"],
  ["CN(C)C(=S)N=c1ssc(=S)n1Cc1ccco1", "no"],
  ["O=C(CCCCCCCC(=O)N1CCCCC1)N1CCCCC1", "no"],
  ["CC1CC(C)CN(CC(=O)N2c3ccccc3CCc3ccccc32)C1 (stereo not given)", "no"],
  ["Cc1ccc(S(=O)(=O)c2nc(-c3cccs3)oc2N2CCCCC2)cc1", "no"],
  ["Cc1ccc(S(=O)(=O)NC(N)=NCCC[C@@H](NC(=O)CNC(=O)c2ccccc2)C(=O)Nc2cc(C(F)(F)F)ccc2Cl)cc1", "no"],
  ["COc1cc(/C=C(\\C#N)c2nc3ccccc3[nH]2)ccc1O", "no"],
  ["COc1cc(C2CC(=O)Oc3cc(OC)c(OC)c(OC)c32)cc(OC)c1OC (stereo not given)", "no"],
  ["COc1cc(OC)c(C(=O)OCC(=O)N2CC(=O)Nc3ccccc32)cc1OC", "no"],
  ["CC1=CC(C)(C)N(C(=O)CSc2nccn2C)c2cc(C)ccc21", "no"],
  ["CC1=CC(C)(C)N(C(=O)CSc2nnc(-c3ccccc3)o2)c2ccc(C)cc21", "yes"],
  ["O=C(N[C@H]1C/C=C\\C(c2ccc(F)cc2)N(Cc2ccccc2)C(=O)C1)OCC1c2ccccc2-c2ccccc21 (stereo not given in full)", "no"],
  ["CC/C(=C(/c1ccccc1)c1ccc(OCC[N+](C)(C)C)cc1)c1ccccc1", "no"],
  ["COc1ccc(Cl)cc1NC(=O)Cn1c(=O)c2ccccc2n2nncc12", "no"],
  ["O=C(NCc1ccc2c(c1)OCO2)c1cc([N+](=O)[O-])ccc1N1CCOCC1", "no"],
  ["CC1CCCN(C(=O)CN2C(=O)c3ccccc3S2(=O)=O)C1 (stereo not given)", "no"],
  ["CN(C)c1ccc(Nc2c3c4c(cccc4n(C)c2=O)C(=O)c2ccccc2-3)cc1", "yes"],
  ["Cn1c2ccccc2c2c(C(=O)N3CCN(c4ccc(F)cc4)CC3)cn(C3CCCC3)c(=O)c21", "yes"],
  ["COc1ccc(-c2noc(CCC(=O)N3CCN(c4cccc(C)c4)CC3)n2)cc1", "no"],
  ["COc1cc2nc(SCc3ccc(F)cc3)n3nc(CCn4c(C)nc5ccccc54)nc3c2cc1OC", "no"],
  ["COc1ccc(-c2noc(CCC(=O)N(C)c3ccccc3C)n2)cc1", "yes"],
  ["O=C(CN1C(=O)c2ccccc2S1(=O)=O)NC1CCCCC1", "no"],
  ["O=C(c1cccs1)c1cn(CCOc2ccc(Cl)cc2)c2ccccc12", "no"],
  ["Cc1ccc(Cl)cc1NC(=O)CCC(=O)N1CC(C)Sc2ccccc21 (stereo not given)", "no"],
  ["COc1ccc(N2CCN(C(=O)CCc3nc(-c4ccc(C)cc4)no3)CC2)cc1", "no"],
  ["OCCCNc1nccc(-c2cc(Nc3cccc(Cl)c3)ncn2)n1", "yes"],
  ["O=C(NCCCNc1ccc([N+](=O)[O-])cc1Cl)c1ccccc1F", "no"],
  ["O=C1CC[C@@H]2CC3(C[C@@H]4CCN1[C@H]24)Nc1cc([N+](=O)[O-])ccc1NC3=NC1CCCCC1 (stereo not given in full)", "no"],
  ["Clc1cccc(N=C2NN=C(c3ccc4c(c3)OCCO4)CS2)c1", "yes"],
  ["CCNC(=O)N(CC)C[C@H]1N[C@@](CC)(C(=O)OC)[C@H]2C(=O)N(Cc3ccccc3)C(=O)[C@@H]12", "no"],
  ["Cc1ccc(S(=O)(=O)N2C[C@@H]3CCCC[C@@H]3[C@@H](C)[C@H]2c2cn(Cc3ccccc3)c3ccc(F)cc23)cc1", "yes"]
]}
